Assign pIC50 to each entry below.
Experiment: Inhibition of HDAC from RT extract
Answers are plain numbers, as −log10 of the molar value.

Solved cases (2 shown):
{"columns": ["molecule", "quantitative-readout"],
 "data": [
  ["O=C(CCCCCc1nc2cc3ccccc3cc2[nH]1)C(F)(F)F", 6.22],
  ["CC(/C=C/C(=O)NO)=C\\[C@@H](C)C(=O)c1ccc(N(C)C)cc1 [TRICHOSTATIN]", 9.00]
]}

// below: pIC50 requested for another molecule
Query: pIC50; subject: Nc1ccccc1NC(=O)c1ccc(CNC(=O)OCc2cccnc2)cc1 [ENTINOSTAT]
5.06

====

Target: Histone deacetylase-like amidohydrolase (Alcaligenes sp. (strain DSM 11172) (Bordetella sp. (strain FB188)), UniProt Q70I53)
Experiment: Inhibition of Bordetella / Alcaligenes strain FB188 HDAH by fluorimetric assay
Parameters: species or system Alcaligenaceae bacterium FB188
property-measured: pIC50
One number for each entry, as −log10 of the molar value.

Looking for the measured pIC50 of `CC(/C=C/C(=O)NO)=C\[C@@H](C)C(=O)c1ccc(N(C)C)cc1` , can you help?
5.92

====

Assay: Inhibition of Bordetella / Alcaligenes strain FB188 HDAC6 by fluorogenic enzyme assay
property-measured: IC50

Can you look up the measured IC50 of `Nc1ccccc1NC(=O)c1ccc(CNC(=O)OCc2cccnc2)cc1` for me?
> 10 µM

====

Assay: Displacement of Atto700-HA from Bordetella / Alcaligenes strain FB188 […] by fluorescence anisotropy
Parameters: species or system Alcaligenaceae bacterium FB188
property-measured: IC50

Would you mind giving IC50 for every compound in the list below?
1. CCC1=C(OC)C(=O)C(CCCCCCCCCCC(C)=O)=C(C)C1=O
2. O=C(CCCCCc1nc2cc3ccccc3cc2[nH]1)C(F)(F)F
3. CCCCCCCCCCCC[C@@H](C)O[C@@H]1O[C@H](CO)[C@@H](O)[C@H](O)[C@H]1O[C@@H]1O[C@H](COC(C)=O)[C@@H](O)[C@H](O)[C@H]1O
4. CCCCCC1OC1CC#CCCCCCCCC(=O)O (centres undefined)

> 50 µM
0.07 µM
> 50 µM
> 20 µM

====

Exercise: state measured pKi for each of the compounds provided.
Target: Histone deacetylase-like amidohydrolase (Alcaligenes sp. (strain DSM 11172) (Bordetella sp. (strain FB188)), UniProt Q70I53)
Assay: Displacement of Atto700-HA from Bordetella / Alcaligenes strain FB188 HDAH by fluorescence anisotropy
Design: species or system Alcaligenaceae bacterium FB188
Give bare numbers, as −log10 of the molar value.

Worked examples, 5 compounds total:
{"columns": ["compound", "pKi"],
 "data": [
  ["O=C(CCCCCc1nc2cc3ccccc3cc2[nH]1)C(F)(F)F", 5.85],
  ["CCCCCCCCCCCC[C@@H](C)O[C@@H]1O[C@H](CO)[C@@H](O)[C@H](O)[C@H]1O[C@@H]1O[C@H](COC(C)=O)[C@@H](O)[C@H](O)[C@H]1O", 5.00],
  ["CCC(=O)CCCCC[C@@H]1NC(=O)[C@H]2CCCCN2C(=O)[C@H]([C@@H](C)CC)NC(=O)[C@H](Cc2cn(OC)c3ccccc23)NC1=O [APICIDIN]", 5.04],
  ["CCC1=C(OC)C(=O)C(CCCCCCCCCCC(C)=O)=C(C)C1=O", 5.96],
  ["CC(/C=C/C(=O)NO)=C\\[C@@H](C)C(=O)c1ccc(N(C)C)cc1 [TRICHOSTATIN]", 6.15]
]}

I am curious: what pKi value has been reported for CCCCCC1OC1CC#CCCCCCCCC(=O)O (configuration not stated) ?
4.70

====

Exercise: for every item that follows, state its recorded IC50.
Molecular target: Histone deacetylase-like amidohydrolase (Alcaligenes sp. (strain DSM 11172) (Bordetella sp. (strain FB188)), UniProt Q70I53)
Sequence (Q70I53 whole entry): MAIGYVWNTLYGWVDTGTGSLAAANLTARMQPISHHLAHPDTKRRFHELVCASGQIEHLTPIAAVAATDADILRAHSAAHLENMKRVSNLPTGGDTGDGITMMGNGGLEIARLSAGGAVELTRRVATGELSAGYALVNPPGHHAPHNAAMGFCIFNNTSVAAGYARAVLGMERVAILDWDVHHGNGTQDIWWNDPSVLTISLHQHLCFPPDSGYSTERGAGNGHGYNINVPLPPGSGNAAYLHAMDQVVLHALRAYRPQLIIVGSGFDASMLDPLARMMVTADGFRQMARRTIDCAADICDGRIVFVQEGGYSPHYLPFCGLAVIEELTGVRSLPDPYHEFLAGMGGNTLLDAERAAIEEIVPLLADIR
Test: Inhibition of Bordetella / Alcaligenes strain FB188 HDAH by fluorogenic enzyme assay
Set-up: species or system Alcaligenaceae bacterium FB188
Just so you know, I need the unit written after the number.

{"columns": ["molecule", "IC50"],
 "data": [
  ["CCCCCC1OC1CC#CCCCCCCCC(=O)O (stereo not given)", "9.2 µM"],
  ["CCC1=C(OC)C(=O)C(CCCCCCCCCCC(C)=O)=C(C)C1=O", "0.6 µM"],
  ["Nc1ccccc1NC(=O)c1ccc(CNC(=O)OCc2cccnc2)cc1", "118 µM"],
  ["O=C(CCCCCc1nc2cc3ccccc3cc2[nH]1)C(F)(F)F", "0.6 µM"]
]}

In the following, a different molecule is considered.
I have this molecule here, `CCCCCCCCCCCC[C@@H](C)O[C@@H]1O[C@H](CO)[C@@H](O)[C@H](O)[C@H]1O[C@@H]1O[C@H](COC(C)=O)[C@@H](O)[C@H](O)[C@H]1O` , and I need its recorded IC50.
6.2 µM

====

Biological target: Histone deacetylase-like amidohydrolase (Alcaligenes sp. (strain DSM 11172) (Bordetella sp. (strain FB188)))
Assay: Binding affinity to Bordetella / Alcaligenes strain FB188 HDAC by FRET assay
Design: species or system Alcaligenaceae bacterium FB188
property-measured: Ki (µM)
One number for each entry, in µM.

{"columns": ["compound", "quantitative-readout"],
 "data": [
  ["CCCCCCCCCCCC[C@@H](C)O[C@@H]1O[C@H](CO)[C@@H](O)[C@H](O)[C@H]1O[C@@H]1O[C@H](COC(C)=O)[C@@H](O)[C@H](O)[C@H]1O", 2]
]}

Could you tell me which Ki is on file for CCCCCC1OC1CC#CCCCCCCCC(=O)O (configuration not stated) ?
4.3
